What log10 of IC50 was measured for each of the following?
Target: C1s (Homo sapiens, UniProt P09871)
Sequence (P09871 16-688): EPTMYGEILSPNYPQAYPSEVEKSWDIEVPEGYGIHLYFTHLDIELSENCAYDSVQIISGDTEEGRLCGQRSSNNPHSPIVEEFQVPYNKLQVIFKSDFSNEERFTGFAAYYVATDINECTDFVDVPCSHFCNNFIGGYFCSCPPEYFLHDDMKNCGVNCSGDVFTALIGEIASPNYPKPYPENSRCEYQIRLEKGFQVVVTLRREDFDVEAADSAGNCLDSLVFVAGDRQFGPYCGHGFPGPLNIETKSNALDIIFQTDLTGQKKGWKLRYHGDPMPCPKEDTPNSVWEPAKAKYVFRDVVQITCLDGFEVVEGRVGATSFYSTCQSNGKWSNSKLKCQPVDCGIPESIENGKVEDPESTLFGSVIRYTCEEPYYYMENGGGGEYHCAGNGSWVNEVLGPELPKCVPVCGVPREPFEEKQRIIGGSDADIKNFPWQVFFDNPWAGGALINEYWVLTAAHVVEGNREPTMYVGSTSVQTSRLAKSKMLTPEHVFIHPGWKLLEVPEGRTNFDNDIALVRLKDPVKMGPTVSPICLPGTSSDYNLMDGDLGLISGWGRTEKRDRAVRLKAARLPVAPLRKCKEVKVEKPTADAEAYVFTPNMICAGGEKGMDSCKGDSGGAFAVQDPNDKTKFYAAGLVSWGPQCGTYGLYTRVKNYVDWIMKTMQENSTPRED
In plain terms, each number is the log10 of measured IC50 in nM.

- N=C(N)c1nc2ccc(OC(=O)c3ccccc3)cc2s1: 0.72
- N=C(N)c1cc2ccc(OC(=O)c3cccs3)cc2s1: 0.20
- N=C(N)c1cc2ccc(OC(=O)c3ccccc3)cc2s1: 1.04
- N=C(N)c1cc2cc(OC(=O)c3ccoc3)ccc2o1: 1.88

Requested field: log10 of IC50. Item: N=C(N)c1nc2ccc(OC(=O)c3cccs3)cc2s1 0.30

Source: patent US6653340B1
